Test system: NCI-H2595 (Mesothelioma)
experimentalDetails: combination Emax (second highest fraction inhibited in the dose matrix, 72 h); higher = more inhibition; extreme values may be limits of the assay
Class True: combination Emax at least 0.3. Class False: combination Emax below 0.3.

[[record]]
molecule = "CN(C)CCCOc1ccc(-c2ccc3ncc4c(c3c2)n(C2CCOCC2)c(=O)n4C)cn1 [AZD0156] + CCN(CCO)CCCOc1ccc2c(Nc3cc(CC(=O)Nc4cccc(F)c4)[nH]n3)ncnc2c1 [AZD2811] (first compound max 1 µM, 7x7, partner max 1 µM)"
testedtarget = "NCI-H2595 (Mesothelioma)"
classlabel = "False"

[[record]]
molecule = "Cc1c2c(nn1C)CSCc1cc(n(C)n1)CSc1cc(c3ccccc3c1)OCCCc1c(C(=O)O)n(C)c3c-2c(Cl)ccc13 [AZD5991] + CC1(C)CCC(CN2CCN(c3ccc(C(=O)NS(=O)(=O)c4ccc(NCC5CCOCC5)c([N+](=O)[O-])c4)c(Oc4cnc5[nH]ccc5c4)c3)CC2)=C(c2ccc(Cl)cc2)C1 [Venetoclax] (first compound max 1 µM, 7x7, partner max 1 µM)"
testedtarget = "NCI-H2595 (Mesothelioma)"
classlabel = "False"

[[record]]
molecule = "CN(C)CCCOc1ccc(-c2ccc3ncc4c(c3c2)n(C2CCOCC2)c(=O)n4C)cn1 [AZD0156] + C[C@@H]1COCCN1C2=NC(=NC(=C2)C3(CC3)[S@](=N)(=O)C)C4=C5C=CNC5=NC=C4 [AZD6738] (first compound max 1 µM, 7x7, partner max 10 µM)"
testedtarget = "NCI-H2595 (Mesothelioma)"
classlabel = "False"

[[record]]
molecule = "C=CCn1c(=O)c2cnc(Nc3ccc(N4CCN(C)CC4)cc3)nc2n1-c1cccc(C(C)(C)O)n1 [AZD1775] + CCc1c2c(nc3ccc(O)cc13)-c1cc3c(c(=O)n1C2)COC(=O)[C@]3(O)CC [SN-38] (first compound max 1 µM, partner max 0.3 µM)"
testedtarget = "NCI-H2595 (Mesothelioma)"
classlabel = "True"


Read the next record carefully.
combination Emax >= 0.3 for Cn1cnc2c(F)c(Nc3ccc(Br)cc3Cl)c(C(=O)NOCCO)cc21 [Selumetinib] + CCN(CCO)CCCOc1ccc2c(Nc3cc(CC(=O)Nc4cccc(F)c4)[nH]n3)ncnc2c1 [AZD2811] (first compound max 10 µM, 7x7, partner max 1 µM) ?
False

====

Tested on: NCI-H2369 (Mesothelioma)
experimentalDetails: combination Emax (second highest fraction inhibited in the dose matrix, 72 h); higher = more inhibition; extreme values may be limits of the assay
// class assignment uses combination Emax with these ranges: bottom end (below 0.2), midrange (0.2 to below 0.3), top end (0.3 or more)

Worked examples follow.
[[record]]
compound = "NC1(C(=O)N[C@@H](CCO)c2ccc(Cl)cc2)CCN(c2ncnc3[nH]ccc23)CC1 [Capivasertib] + Cn1cnc2c(F)c(Nc3ccc(Br)cc3Cl)c(C(=O)NOCCO)cc21 [Selumetinib] (first compound max 10 µM, 7x7, partner max 10 µM)"
classlabel = "midrange"

[[record]]
compound = "COc1cccc(OCCCN)c1-c1cc(Nc2cnc(C#N)cn2)n[nH]1 [Prexasertib] + CN(C)CCCOc1ccc(-c2ccc3ncc4c(c3c2)n(C2CCOCC2)c(=O)n4C)cn1 [AZD0156] (first compound max 1 µM, 7x7, partner max 1 µM)"
classlabel = "midrange"

[[record]]
compound = "CN(CCO)CC[C@H](CSc1ccccc1)Nc1ccc(S(=O)(=O)NC(=O)c2ccc(N3CCC([C@@H](O)c4ccccc4-c4ccc(Cl)cc4)CC3)cc2)cc1S(=O)(=O)C(F)(F)F [AZD4320] + Cn1cnc2c(F)c(Nc3ccc(Br)cc3Cl)c(C(=O)NOCCO)cc21 [Selumetinib] (first compound max 1 µM, 7x7, partner max 3 µM)"
classlabel = "top end"

[[record]]
compound = "COc1cc2c(cc1OCCCCCOc1cc3c(cc1OC)C(=O)N1C=C(C)C[C@H]1C=N3)N=C[C@@H]1CC(C)=CN1C2=O [SG3199] + O=C(c1cc(Cc2n[nH]c(=O)c3ccccc23)ccc1F)N1CCN(C(=O)C2CC2)CC1 [Olaparib] (first compound max 0.001 µM, 7x7, partner max 10 µM)"
classlabel = "bottom end"

[[record]]
compound = "Cc1c2c(nn1C)CSCc1cc(n(C)n1)CSc1cc(c3ccccc3c1)OCCCc1c(C(=O)O)n(C)c3c-2c(Cl)ccc13 [AZD5991] + Cn1cnc2c(F)c(Nc3ccc(Br)cc3Cl)c(C(=O)NOCCO)cc21 [Selumetinib] (first compound max 1 µM, 7x7, partner max 3 µM)"
classlabel = "bottom end"


Note: place this compound into its band. Item: C=CCn1c(=O)c2cnc(Nc3ccc(N4CCN(C)CC4)cc3)nc2n1-c1cccc(C(C)(C)O)n1 [AZD1775] + O=C(c1cc(Cc2n[nH]c(=O)c3ccccc23)ccc1F)N1CCN(C(=O)C2CC2)CC1 [Olaparib] (first compound max 1 µM, partner max 10 µM)
midrange

Given CCN(CCO)CCCOc1ccc2c(Nc3cc(CC(=O)Nc4cccc(F)c4)[nH]n3)ncnc2c1 [AZD2811] + C=CCn1c(=O)c2cnc(Nc3ccc(N4CCN(C)CC4)cc3)nc2n1-c1cccc(C(C)(C)O)n1 [AZD1775] (first compound max 1 µM, partner max 1 µM) , name the class its combination Emax places it in.
bottom end

Sort into band: CC1(C)CCC(CN2CCN(c3ccc(C(=O)NS(=O)(=O)c4ccc(NCC5CCOCC5)c([N+](=O)[O-])c4)c(Oc4cnc5[nH]ccc5c4)c3)CC2)=C(c2ccc(Cl)cc2)C1 [Venetoclax] + C[C@@H]1COCCN1C2=NC(=NC(=C2)C3(CC3)[S@](=N)(=O)C)C4=C5C=CNC5=NC=C4 [AZD6738] (first compound max 1 µM, 7x7, partner max 10 µM)
midrange

Using the reported combination Emax, which band applies to COc1nnc2ccc(N3CCC(c4ccc(OCCN5CCN(C)C(=O)[C@H]5C)cc4)CC3)nn12 [AZD5153] + Cc1c2c(nn1C)CSCc1cc(n(C)n1)CSc1cc(c3ccccc3c1)OCCCc1c(C(=O)O)n(C)c3c-2c(Cl)ccc13 [AZD5991] (first compound max 1 µM, 7x7, partner max 1 µM) ?
top end

Just checking, what class would you give C[C@@H](c1ccc2nccn2c1)n1nnc2ncc(-c3cnn(C)c3)nc21 [Savolitinib] + CC1(C)CCC(CN2CCN(c3ccc(C(=O)NS(=O)(=O)c4ccc(NCC5CCOCC5)c([N+](=O)[O-])c4)c(Oc4cnc5[nH]ccc5c4)c3)CC2)=C(c2ccc(Cl)cc2)C1 [Venetoclax] (first compound max 1 µM, 7x7, partner max 1 µM) here?
bottom end

Which category fits this record: Cc1cc2ncnn2cc1Nc1ncc2c(n1)n(C1CCOCC1)c(=O)n2C [AZD7648] + C[C@@H]1COCCN1C2=NC(=NC(=C2)C3(CC3)[S@](=N)(=O)C)C4=C5C=CNC5=NC=C4 [AZD6738] (first compound max 10 µM, 7x7, partner max 10 µM)
midrange

Quick check: band for COc1cccc(OCCCN)c1-c1cc(Nc2cnc(C#N)cn2)n[nH]1 [Prexasertib] + Cc1cc2ncnn2cc1Nc1ncc2c(n1)n(C1CCOCC1)c(=O)n2C [AZD7648] (first compound max 1 µM, 7x7, partner max 10 µM)
midrange

====

Test system: SW1990 (Pancreatic Carcinoma)
experimentalDetails: combination Emax (second highest fraction inhibited in the dose matrix, 72 h); higher = more inhibition; extreme values may be limits of the assay
measureName: combination Emax
# answer = number (no unit)

[[record]]
compound = "CC1(C)CCC(CN2CCN(c3ccc(C(=O)NS(=O)(=O)c4ccc(NCC5CCOCC5)c([N+](=O)[O-])c4)c(Oc4cnc5[nH]ccc5c4)c3)CC2)=C(c2ccc(Cl)cc2)C1 [Venetoclax] + CCN(CCO)CCCOc1ccc2c(Nc3cc(CC(=O)Nc4cccc(F)c4)[nH]n3)ncnc2c1 [AZD2811] (first compound max 1 µM, 7x7, partner max 1 µM)"
number = 0.625

[[record]]
compound = "COc1cc2c(cc1OCCCCCOc1cc3c(cc1OC)C(=O)N1C=C(C)C[C@H]1C=N3)N=C[C@@H]1CC(C)=CN1C2=O [SG3199] + O=C(c1cc(Cc2n[nH]c(=O)c3ccccc23)ccc1F)N1CCN(C(=O)C2CC2)CC1 [Olaparib] (first compound max 0.001 µM, 7x7, partner max 10 µM)"
number = 0.125


Next compound, combination Emax to be filled in.
Recorded combination Emax of Cc1c2c(nn1C)CSCc1cc(n(C)n1)CSc1cc(c3ccccc3c1)OCCCc1c(C(=O)O)n(C)c3c-2c(Cl)ccc13 [AZD5991] + CC(=O)O[C@H]1C(=O)[C@@]2(C)[C@H]([C@H](OC(=O)c3ccccc3)[C@]3(O)C[C@H](OC(=O)[C@H](O)[C@@H](NC(=O)c4ccccc4)c4ccccc4)C(C)=C1C3(C)C)[C@]1(OC(C)=O)CO[C@@H]1C[C@@H]2O [Paclitaxel] (first compound max 1 µM, 7x7, partner max 3 µM) , please.
0.496
